- MEASUREMENT_PROTOCOL: qHTS assay for small molecules that induce genotoxicity in human embryonic kidney cells expressing luciferase-tagged ATAD5 (AID 651632); further: nearly all actives have a fitted effect of over 15% in size
- CONDITION_SET: HEK293T ATAD5-luciferase induction, 16 h; series mostly up to 83.3 µM
Inconclusive results are not listed. The source made the active and inactive calls. The call rests on the fitted dose curve; in most records, active means well fitted activation curve with a large enough effect in the repeat runs; inconclusive means weak or mixed curves; inactive means no such curve, though single readings can be large or run the other way.
Outcome codes: Y = active, N = inactive

{"COMPOUND": "CC(=O)[C@@]1(O)CC[C@H]2[C@@H]3CCC4=CC(=O)CC[C@]4(C)[C@H]3CC[C@@]21C", "CLASSIFICATION": "N"}
{"COMPOUND": "S=c1nc[nH]c2nc[nH]c12", "CLASSIFICATION": "N"}
{"COMPOUND": "CCCCC/C=C\\C/C=C\\CCCCCCCC(=O)OC", "CLASSIFICATION": "N"}
{"COMPOUND": "C=C1CC[C@H](O)CC1=C/C=C1\\CCC[C@]2(C)[C@@H]([C@H](C)/C=C/[C@H](C)C(C)C)CC[C@@H]12", "CLASSIFICATION": "N"}
{"COMPOUND": "CC(C)(N=C=O)c1cccc(C(C)(C)N=C=O)c1", "CLASSIFICATION": "N"}
{"COMPOUND": "Clc1cc(Cl)c(Cl)cc1Cl", "CLASSIFICATION": "N"}
{"COMPOUND": "CCC(C)C=O (stereo unspecified)", "CLASSIFICATION": "N"}
{"COMPOUND": "NS(=O)(=O)c1cc2c(cc1Cl)NC=NS2(=O)=O", "CLASSIFICATION": "N"}
{"COMPOUND": "CC1=C(CC(=O)O)c2cc(F)ccc2/C1=C\\c1ccc(S(C)=O)cc1 (stereo unspecified)", "CLASSIFICATION": "N"}
{"COMPOUND": "O=c1c(-c2ccc(O)cc2)coc2cc(O)ccc12", "CLASSIFICATION": "Y"}
{"COMPOUND": "Cc1cc(O)cc(C)c1Cl", "CLASSIFICATION": "N"}
{"COMPOUND": "O=[N+]([O-])C(CO)(CO)CO", "CLASSIFICATION": "N"}
{"COMPOUND": "CS(=O)(=O)c1ccc([C@@H](O)[C@@H](CO)NC(=O)C(Cl)Cl)cc1", "CLASSIFICATION": "N"}
{"COMPOUND": "c1ccc2[nH]cnc2c1", "CLASSIFICATION": "N"}
{"COMPOUND": "CN(C)c1cccc(O)c1", "CLASSIFICATION": "N"}
{"COMPOUND": "CC1=C(/C=C/C(C)=C/C=C/C(C)=C/CO)C(C)(C)CCC1", "CLASSIFICATION": "N"}
{"COMPOUND": "CCc1ccc(O)cc1", "CLASSIFICATION": "N"}
{"COMPOUND": "CNC[C@H](O)[C@@H](O)[C@H](O)[C@H](O)CO", "CLASSIFICATION": "N"}
{"COMPOUND": "Cc1cc(=O)[nH]c(C(C)C)n1", "CLASSIFICATION": "N"}
{"COMPOUND": "CC(C)(C)C1CCC(O)CC1 (stereo unspecified)", "CLASSIFICATION": "N"}
{"COMPOUND": "Cc1ccc(C(=O)O)o1", "CLASSIFICATION": "N"}
{"COMPOUND": "NCc1cccc(CN)c1", "CLASSIFICATION": "N"}
{"COMPOUND": "C[C@@H]1O[C@@H](OC[C@H]2O[C@@H](Oc3c(-c4ccc(O)c(O)c4)oc4cc(O)cc(O)c4c3=O)[C@H](O)[C@@H](O)[C@@H]2O)[C@H](O)[C@H](O)[C@H]1O", "CLASSIFICATION": "N"}
{"COMPOUND": "CCCCCCC(C)(C)S", "CLASSIFICATION": "N"}
{"COMPOUND": "c1ccc2ccccc2c1", "CLASSIFICATION": "N"}
{"COMPOUND": "CCCCOCCOCCOC(=O)CCCCC(=O)OCCOCCOCCCC", "CLASSIFICATION": "N"}

====

- SYSTEM: Estrogen receptor beta (Homo sapiens) (UniProt Q92731)
- Sequence (Q92731 whole entry, looked up): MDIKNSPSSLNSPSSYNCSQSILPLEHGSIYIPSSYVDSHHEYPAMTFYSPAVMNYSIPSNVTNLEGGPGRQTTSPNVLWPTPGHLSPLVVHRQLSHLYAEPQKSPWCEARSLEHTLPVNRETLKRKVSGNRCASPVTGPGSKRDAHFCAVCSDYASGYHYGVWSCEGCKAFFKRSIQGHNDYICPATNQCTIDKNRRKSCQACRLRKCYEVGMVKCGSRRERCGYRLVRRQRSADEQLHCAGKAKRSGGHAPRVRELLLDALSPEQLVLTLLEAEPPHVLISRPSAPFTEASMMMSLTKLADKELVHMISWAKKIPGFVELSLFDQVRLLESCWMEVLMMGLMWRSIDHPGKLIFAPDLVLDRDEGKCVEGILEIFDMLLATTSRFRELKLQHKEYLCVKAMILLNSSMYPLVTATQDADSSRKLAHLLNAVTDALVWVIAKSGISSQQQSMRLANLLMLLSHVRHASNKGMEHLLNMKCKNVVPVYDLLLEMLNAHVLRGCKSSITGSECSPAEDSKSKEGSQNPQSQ
- MEASUREMENT_PROTOCOL: qHTS assay to identify small molecule antagonists of the estrogen receptor beta (ER-beta) signaling pathway (AID 1259378)
- CONDITION_SET: ER-beta-UAS-bla HEK293T, beta-lactamase FRET ratio, 16 h; series mostly up to 92.4 µM
Inconclusive results are not listed. Calls of active or inactive are those of the source. Calls come from the whole dose curve; as a rule, active = well fitted inhibition curve with a large enough effect in the signal ratio in the repeat runs (not every such curve was filed as active); inconclusive = weak or mixed curves, or effect the other way; inactive = no such curve, though single readings can be large or run the other way; the % refers to the signal ratio.

{"COMPOUND": "CN(C)c1cccc(O)c1", "outcome": "inactive"}
{"COMPOUND": "C/C=C(C)/C=C/C=C(C)C", "outcome": "inactive"}
{"COMPOUND": "O=C1CCCCC1", "outcome": "inactive"}
{"COMPOUND": "Oc1ccc(OCc2ccccc2)cc1", "outcome": "inactive"}
{"COMPOUND": "CC(=O)CCc1ccccc1", "outcome": "inactive"}
{"COMPOUND": "CCc1ccccc1O", "outcome": "inactive"}
{"COMPOUND": "CC1(C)O[C@@H]2C[C@H]3[C@@H]4C[C@H](F)C5=CC(=O)CC[C@]5(C)[C@H]4[C@@H](O)C[C@]3(C)[C@]2(C(=O)CO)O1", "outcome": "inactive"}
{"COMPOUND": "NC(=O)/N=N/C(N)=O", "outcome": "inactive"}
{"COMPOUND": "C[C@@H](O)[C@H]1C(=O)N2C(C(=O)O)=C(S[C@@H]3CN[C@H](C(=O)N(C)C)C3)[C@H](C)[C@H]12", "outcome": "inactive"}
{"COMPOUND": "CC1Cc2ccccc2N1NC(=O)c1ccc(Cl)c(S(N)(=O)=O)c1 (stereo not drawn)", "outcome": "inactive"}
{"COMPOUND": "O=S(=O)(O)c1cc(S(=O)(=O)O)c2c(N=Nc3ccccc3)c(O)ccc2c1", "outcome": "inactive"}
{"COMPOUND": "Nc1nc2ncc(CNc3ccc(C(=O)N[C@@H](CCC(=O)O)C(=O)O)cc3)nc2c(=O)[nH]1", "outcome": "inactive"}
{"COMPOUND": "CC1COc2ccccc2N1C(=O)C(Cl)Cl (stereo not drawn)", "outcome": "inactive"}
{"COMPOUND": "CCCCCC/C=C/CCCCCCCC(=O)O", "outcome": "inactive"}
{"COMPOUND": "O=S(=O)(O)CCS", "outcome": "inactive"}
{"COMPOUND": "C=C(C)C(=O)OCCCCCCCCCCCC", "outcome": "inactive"}
{"COMPOUND": "O=[N+]([O-])c1cc(N(CCO)CCO)ccc1NCCO", "outcome": "inactive"}
{"COMPOUND": "O=C1O[C@H](CO)[C@@H](O)[C@H](O)[C@H]1O", "outcome": "inactive"}
{"COMPOUND": "Cc1cc(=O)[nH]c(C(C)C)n1", "outcome": "inactive"}
{"COMPOUND": "Cc1ccc(C)c(C)c1", "outcome": "inactive"}
{"COMPOUND": "Clc1ccc(Cl)c(Cl)c1Cl", "outcome": "inactive"}
{"COMPOUND": "Cn1c([N+](=O)[O-])cnc1COC(N)=O", "outcome": "inactive"}
{"COMPOUND": "CCCCNC(N)=O", "outcome": "inactive"}
{"COMPOUND": "Oc1ccc2ccccc2c1N=Nc1ccccc1", "outcome": "inactive"}
{"COMPOUND": "O=[N+]([O-])C(CO)(CO)CO", "outcome": "inactive"}
{"COMPOUND": "Clc1cc(Cl)c(Cl)cc1Cl", "outcome": "inactive"}
{"COMPOUND": "COC(=O)c1ccc(C(=O)OC)cc1", "outcome": "inactive"}
{"COMPOUND": "CCCCCCC(C)(C)S", "outcome": "inactive"}

====

- MEASUREMENT_PROTOCOL: qHTS assay for small molecules that induce genotoxicity in human embryonic kidney cells expressing luciferase-tagged ATAD5 - cell viability (AID 651634); further: nearly all actives have a fitted effect of over 25% in size
- CONDITION_SET: HEK293T ATAD5-luc cells viability, CellTiter-Fluor, 15.5 h; series mostly up to 83.3 µM
Records with an inconclusive call do not appear. Active and inactive are the calls of the source. The call rests on the fitted dose curve.

{"MOLECULE": "Cc1ccc(C(=O)O)o1", "outcome": "inactive"}
{"MOLECULE": "CC1Cc2ccccc2N1NC(=O)c1ccc(Cl)c(S(N)(=O)=O)c1 (stereo not given)", "outcome": "inactive"}
{"MOLECULE": "O=Nc1ccc(O)cc1", "outcome": "inactive"}
{"MOLECULE": "OCC1CCCO1 (stereo not given)", "outcome": "inactive"}
{"MOLECULE": "O=C1O[C@H](CO)[C@@H](O)[C@H](O)[C@H]1O", "outcome": "inactive"}
{"MOLECULE": "Oc1ccc2ccccc2c1", "outcome": "inactive"}
{"MOLECULE": "CCOC(=O)/C=C\\C(=O)OCC", "outcome": "inactive"}
{"MOLECULE": "O=C(O)c1cc(-c2ccccc2)nc2ccccc12", "outcome": "inactive"}
{"MOLECULE": "C/C=C(C)/C=C/C=C(C)C", "outcome": "inactive"}
{"MOLECULE": "C=C(C)C(=O)OCCCCCCCCCCCC", "outcome": "inactive"}
{"MOLECULE": "CCCCCCCCCC(=O)O", "outcome": "inactive"}
{"MOLECULE": "O=C1N=C(O)CN1/N=C/c1ccc(-c2ccc([N+](=O)[O-])cc2)o1", "outcome": "inactive"}
{"MOLECULE": "CNC[C@H](O)[C@@H](O)[C@H](O)[C@H](O)CO", "outcome": "inactive"}
{"MOLECULE": "O=C(c1ccc(O)cc1)c1ccc(O)cc1O", "outcome": "inactive"}
{"MOLECULE": "OC1CCCC1", "outcome": "inactive"}
